Target: human ETA 24 endothelin receptor (Homo sapiens, UniProt P25101)
Sequence (P25101 21-427): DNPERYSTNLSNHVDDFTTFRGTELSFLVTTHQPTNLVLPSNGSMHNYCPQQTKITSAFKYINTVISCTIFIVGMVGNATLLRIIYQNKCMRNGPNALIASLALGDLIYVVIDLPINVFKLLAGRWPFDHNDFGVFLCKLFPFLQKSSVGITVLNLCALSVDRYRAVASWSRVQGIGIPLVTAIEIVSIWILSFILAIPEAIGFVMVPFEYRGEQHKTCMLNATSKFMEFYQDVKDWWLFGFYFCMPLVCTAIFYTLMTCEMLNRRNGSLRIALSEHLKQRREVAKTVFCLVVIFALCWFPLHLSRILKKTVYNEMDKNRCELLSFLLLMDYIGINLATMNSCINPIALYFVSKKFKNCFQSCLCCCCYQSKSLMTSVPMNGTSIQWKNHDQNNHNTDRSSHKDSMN
Assay: Binding Test to ETA receptor expressed in CHO cell (ET-1-stimulated [3H]arachidonic acid release)
Conditions: CHO cell expressing human ETA (ETA 24 cells), final concentration of ET-1 6.3x10^-10M, n=2
MEASURE: pIC50
Give bare numbers, as −log10 of the molar value.

Data request: Query: pIC50; subject: `COCOc1ccc(-c2sc3c(c2CNS(C)(=O)=O)c(=O)n(CC(=O)O)c(=O)n3Cc2ccccc2SC)cc1`
Data returned: 6.41

For the next question, use this molecule.
Data request: I have this molecule here, `CCS(=O)(=O)NCc1c(-c2ccc(OCOC)cc2)sc2c1c(=O)n(CC(=O)O)c(=O)n2Cc1ccccc1SC` , and I need its recorded pIC50.
Data returned: 6.96
